target: parathyroid cell calcium receptor (Bos taurus); assay: cell-based; type: cell-based; conditions: Table 8 (arylalkylamine calcimimetics); parathyroid cell calcium receptor; read-out: EC50
Structures can show the parent of a compound that is named as a salt.
Assay Metric: EC50 (nM)
Return type: number; implicit unit nM.

C[C@@H](NCc1ccc(Cl)c(Cl)c1)c1cccc2ccccc12 [Compound 13R] | 250
COc1cccc([C@@H](C)NCCCc2ccc(C(F)(F)F)cc2)c1 [Compound 21Q] | 1400
COc1cccc(C(C)NCCC(C)c2ccccc2Cl)c1 (stereo not shown) | 1300
CCOc1cccc([C@@H](C)NCCCc2ccccc2)c1 | 3400
COc1cccc([C@@H](C)NCCCc2ccccc2C)c1 [Compound 12U, hydrochloride] | 1200

In: Returns the measured EC50 for the input molecule. Input: COc1ccc(CN[C@H](C)c2cccc3ccccc23)cc1F [Compound 16T]
Out: 40

In: Repeat with CCC(CCc1ccccc1)NC(C)c1cccc(OC)c1 (stereo not shown) [Compound 20S]
Out: 4200

In: Repeat with COc1cccc([C@@H](C)N[C@H](C)CCc2ccccc2)c1 [Compound 21D]
Out: 3000

* * *

biological target: parathyroid cell calcium receptor (Bos taurus); test: cell-based; format: cell-based; conditions: Table 8 (arylalkylamine calcimimetics); parathyroid cell calcium receptor; read-out: EC50
Counter-ions that a name gives are not always drawn.
Recorded measurements of EC50, one per entry
Give the value; after it, write the unit.

Record excerpt, results attached:
COc1cccc([C@@H](C)NCCCc2cccc(C)c2)c1 [Compound 12V, hydrochloride] | 0.42 µM
COc1cccc([C@@H](C)NCCCc2ccccc2OC)c1 [Compound 8U, hydrochloride] | 0.44 µM

In: Returns the measured EC50 for the input compound. Input: COc1cccc([C@@H](C)NCCCc2ccccc2C(F)(F)F)c1 [Compound 21O]
Out: 0.26 µM

* * *

biological target: parathyroid cell calcium receptor (Bos taurus, UniProt P35384); assay: cell-based; format: cell-based; details: EC50 for mobilizing intracellular Ca^2+, bovine parathyroid cells
Assay Metric: pEC50
On this scale, pEC50 is minus log10 of a concentration expressed in M (mol/L).

In: Returns the measured pEC50 for the input compound. Input: N=C(N)NCCC[C@H](N)C(=O)NCCCNCCCNCCCCCNC(=O)[C@H](CC(N)=O)NC(=O)Cc1c[nH]c2cccc(O)c12 [Argiotoxin-659, reference compound]
Out: 3.52

* * *

Recorded measurements of pEC50, one per entry
Biological target: parathyroid cell calcium receptor (Bos taurus, UniProt P35384)
Sequence (P35384 21-1085 limits assumed): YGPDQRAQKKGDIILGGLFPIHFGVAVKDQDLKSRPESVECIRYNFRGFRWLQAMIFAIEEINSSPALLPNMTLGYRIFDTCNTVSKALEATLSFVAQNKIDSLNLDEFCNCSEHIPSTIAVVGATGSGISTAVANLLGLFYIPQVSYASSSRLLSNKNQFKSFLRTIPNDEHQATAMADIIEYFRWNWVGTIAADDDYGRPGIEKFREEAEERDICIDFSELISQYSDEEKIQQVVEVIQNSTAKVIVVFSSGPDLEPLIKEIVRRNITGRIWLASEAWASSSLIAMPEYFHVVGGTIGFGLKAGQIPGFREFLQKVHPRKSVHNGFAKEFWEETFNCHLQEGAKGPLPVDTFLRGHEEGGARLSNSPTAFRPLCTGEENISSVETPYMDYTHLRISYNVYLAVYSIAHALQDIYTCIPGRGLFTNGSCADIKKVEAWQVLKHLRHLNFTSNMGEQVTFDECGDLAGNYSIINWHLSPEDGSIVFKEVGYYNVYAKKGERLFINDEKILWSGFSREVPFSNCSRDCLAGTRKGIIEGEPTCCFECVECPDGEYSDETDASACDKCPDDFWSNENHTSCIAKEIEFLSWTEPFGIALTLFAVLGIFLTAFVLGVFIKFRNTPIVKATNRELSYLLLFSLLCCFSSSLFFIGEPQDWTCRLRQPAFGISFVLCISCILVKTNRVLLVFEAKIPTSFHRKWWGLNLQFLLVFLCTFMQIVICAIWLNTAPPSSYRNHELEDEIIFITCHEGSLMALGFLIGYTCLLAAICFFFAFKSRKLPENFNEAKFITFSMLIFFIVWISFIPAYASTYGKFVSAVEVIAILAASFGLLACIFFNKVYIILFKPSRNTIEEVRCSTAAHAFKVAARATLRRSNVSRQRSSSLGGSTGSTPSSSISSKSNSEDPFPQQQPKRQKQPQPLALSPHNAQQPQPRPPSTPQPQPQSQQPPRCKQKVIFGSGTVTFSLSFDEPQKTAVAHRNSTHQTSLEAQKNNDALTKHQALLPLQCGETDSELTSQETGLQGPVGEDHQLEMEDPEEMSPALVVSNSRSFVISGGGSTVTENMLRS
Assay: cell-based
Type: cell-based
Details: Table 6; bovine parathyroid cells; read-out: EC50 PARATHYROID
On this scale, pEC50 is minus log10 of a concentration expressed in M (mol/L).

NCCCNCCCCNCCCNCCCNCCCNC(=O)Cc1c[nH]c2ccccc12 [NPS 019, reference compound] | 4.40

Attention now shifts to the item below.
In: Returns the measured pEC50 for the input compound. Input: C[C@@H](NCCC(c1ccccc1)c1ccccc1)c1ccccc1 [R-Fendiline]
Out: 5.05
